# System: Macrophage
# assay-text: Inhibition of LPS-stimulated TNFalpha production in mouse peritoneal macrophages
# Format: functional, cell-based
endpoint-name: IC50 (nM)
Numbers only, in nM.

Check out these entries, answers already filled in.
INSERT INTO measurements (input_smiles, reported) VALUES
  ('CC(C)S(=O)(=O)n1c(N)nc2ccc(-c3[nH]c(-c4c(F)cccc4F)nc3-c3ccccc3)cc21', 10.3),
  ('Cc1nc2ccc(-c3[nH]c(-c4c(F)cccc4F)nc3-c3ccccc3)cc2n1CC(C)C', 338);

Provide the reported IC50 of each entry below, same order.
1. CC(C)Cn1cnc2ccc(-c3[nH]c(-c4c(F)cccc4F)nc3-c3ccccc3)cc21
2. CC(C)S(=O)(=O)n1c(N)nc2ccc(-c3nc(-c4ccccc4C(F)(F)F)[nH]c3-c3ccccc3)cc21
3. CC(C)S(=O)(=O)n1c(N)nc2ccc(-c3[nH]c(-c4ccncc4)nc3-c3ccccc3)cc21
4. Cc1nc(-c2ccc(F)cc2F)c(-c2ccc3nc(N)n(S(=O)(=O)C(C)C)c3c2)[nH]1
5. Nc1nc2ccc(-c3[nH]c(-c4c(F)cccc4F)nc3-c3ccccc3)cc2[nH]1
6. Cc1nc(-c2ccccc2)c(-c2ccc3nc(N)n(S(=O)(=O)C(C)C)c3c2)[nH]1
7. Cc1nc(-c2ccc(F)cc2)c(-c2ccc3nc(N)n(S(=O)(=O)C(C)C)c3c2)[nH]1

1: 51.9; 2: 33.1; 3: 14.1; 4: 46.5; 5: 1330; 6: 186; 7: 104

Provide the reported IC50 of each entry below, same order.
1. CC(C)Cn1cnc2ccc(-c3[nH]c(-c4c(F)cccc4F)nc3-c3ccccc3)nc21
2. CC(C)S(=O)(=O)n1c(N)nc2ccc(-c3[nH]c(-c4ccc(Cl)cc4)nc3-c3ccccc3)cc21
3. CC(C)(C)Cn1cnc2ccc(-c3[nH]c(C(C)(C)C)nc3-c3ccc(F)cc3F)nc21
4. CC(C)S(=O)(=O)n1c(N)nc2ccc(-c3nc(-c4c(Cl)cccc4Cl)[nH]c3-c3ccccc3)cc21
5. CC(C)S(=O)(=O)n1c(N)nc2ccc(-c3[nH]c(-c4c(F)cccc4Cl)nc3-c3ccccc3)cc21
6. Fc1cccc(F)c1-c1nc(-c2ccccc2)c(-c2ccc3nc[nH]c3c2)[nH]1
7. CC(C)S(=O)(=O)n1c(N)nc2ccc(-c3[nH]c(-c4c(Cl)cccc4C(F)(F)F)nc3-c3ccccc3)cc21

1. 26.7
2. 71
3. 24.1
4. 2.6
5. 11.2
6. 419
7. 1.9

Given the entry CC(C)Cn1c(N)nc2ccc(-c3[nH]c(-c4c(F)cccc4F)nc3-c3ccccc3)cc21 , report its measured IC50.
47.5

----------
# assayed-target: Mitogen-activated protein kinase 14 (Homo sapiens, UniProt Q16539)
# Sequence (Q16539 whole entry): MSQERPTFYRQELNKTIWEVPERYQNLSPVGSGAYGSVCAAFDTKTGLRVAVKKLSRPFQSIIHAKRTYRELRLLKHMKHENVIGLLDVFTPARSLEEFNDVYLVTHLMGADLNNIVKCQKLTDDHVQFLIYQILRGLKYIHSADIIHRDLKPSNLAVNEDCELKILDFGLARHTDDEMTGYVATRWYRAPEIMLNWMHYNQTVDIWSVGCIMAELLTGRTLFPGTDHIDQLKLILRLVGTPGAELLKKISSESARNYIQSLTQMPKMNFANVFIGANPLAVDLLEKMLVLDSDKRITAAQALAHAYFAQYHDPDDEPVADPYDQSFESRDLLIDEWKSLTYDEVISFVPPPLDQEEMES
# assay-text: Inhibition of human recombinant p38alpha
Threshold-based label: IC50 under 10 nM gives 1, IC50 not under 10 nM gives 0.

INSERT INTO results (input_smiles, assigned_label) VALUES
  ('CC(C)S(=O)(=O)n1c(N)nc2ccc(-c3nc(-c4c(Cl)cccc4Cl)[nH]c3-c3ccc(F)cc3)cc21', 1),
  ('CCNc1nc2ccc(-c3[nH]c(-c4c(F)cccc4F)nc3-c3ccccc3)cc2[nH]1', 0),
  ('Fc1cccc(F)c1-c1nc(-c2ccccc2)c(-c2ccc3nc[nH]c3c2)[nH]1', 0),
  ('Cc1nc(-c2ccc(F)cc2F)c(-c2ccc3nc(N)n(S(=O)(=O)C(C)C)c3c2)[nH]1', 1);

Next:
Below 10 nM on IC50? Entry Cc1nc2ccc(-c3[nH]c(-c4c(F)cccc4F)nc3-c3ccccc3)cc2n1CC(C)C
0

----------
# assayed-target: Mitogen-activated protein kinase 14 (Mus musculus, UniProt P47811)
# Sequence (P47811 whole entry): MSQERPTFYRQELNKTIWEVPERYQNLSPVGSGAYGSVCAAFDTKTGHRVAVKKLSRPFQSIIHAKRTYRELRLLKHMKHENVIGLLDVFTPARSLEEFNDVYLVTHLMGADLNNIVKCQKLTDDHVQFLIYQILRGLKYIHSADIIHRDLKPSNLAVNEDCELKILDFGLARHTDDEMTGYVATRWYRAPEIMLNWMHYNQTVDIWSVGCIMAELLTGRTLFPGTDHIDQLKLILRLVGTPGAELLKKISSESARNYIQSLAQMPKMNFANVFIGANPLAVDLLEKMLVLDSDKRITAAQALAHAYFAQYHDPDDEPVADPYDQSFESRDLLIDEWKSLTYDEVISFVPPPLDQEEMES
# assay-text: Inhibition of mouse p38alpha in anisomycin-stimulated RAW 264.7 cells by ELISA
For each of the molecules below, state its pIC50.
Answers are plain numbers, as −log10 of the molar value.

Check out these entries, answers already filled in.
INSERT INTO measurements (input_smiles, reported) VALUES
  ('CC(C)S(=O)(=O)n1c(N)nc2ccc(-c3nc(-c4c(Cl)cccc4Cl)[nH]c3-c3ccc(F)cc3)cc21', 7.56),
  ('CC(C)S(=O)(=O)n1c(N)nc2ccc(-c3[nH]c(-c4c(F)cccc4F)nc3-c3ccccc3)nc21', 6.53);

Provide the reported pIC50 of each entry below, same order.
1. Cc1nc(-c2ccc(F)cc2)c(-c2ccc3nc(N)n(S(=O)(=O)C(C)C)c3c2)[nH]1
2. CC(C)S(=O)(=O)n1c(N)nc2ccc(-c3[nH]c(-c4c(Cl)cccc4C(F)(F)F)nc3-c3ccccc3)cc21
3. Fc1cccc(F)c1-c1nc(-c2ccccc2)c(-c2ccc3nc[nH]c3c2)[nH]1

6.65
6.40
6.12

Provide the reported pIC50 of each entry below, same order.
1. CC(C)S(=O)(=O)n1c(N)nc2ccc(-c3[nH]c(C(C)(C)C)nc3-c3ccc(F)cc3F)cc21
2. CC(C)(C)Cn1c(N)nc2ccc(-c3[nH]c(-c4c(F)cccc4F)nc3-c3ccccc3)cc21
3. CC(C)S(=O)(=O)n1c(N)nc2ccc(-c3nc(-c4c(Cl)cccc4Cl)[nH]c3-c3ccccc3)cc21

1. 7.58
2. 6.90
3. 7.41

----------
# Tested on: Macrophage
# assay-text: Inhibition of LPS-stimulated TNFalpha production in mouse peritoneal macrophages
# Assay type: functional, cell-based
endpoint-name: IC50 (nM)
Answers are plain numbers, in nM.

Check out these entries, answers already filled in.
INSERT INTO measurements (input_smiles, reported) VALUES
  ('CC(C)S(=O)(=O)n1c(N(C)Cc2ccccc2)nc2ccc(-c3[nH]c(-c4c(F)cccc4F)nc3-c3ccccc3)cc21', 234),
  ('CCNc1nc2ccc(-c3[nH]c(-c4c(F)cccc4F)nc3-c3ccccc3)cc2n1S(=O)(=O)C(C)C', 527),
  ('CC(C)(C)Cn1c(N)nc2ccc(-c3[nH]c(-c4c(F)cccc4F)nc3-c3ccccc3)cc21', 3.5);

Next, consider the following compound.
Given the entry CC(C)Cn1cnc2ccc(-c3[nH]c(-c4c(Cl)cccc4Cl)nc3-c3ccccc3)nc21.CS(=O)(=O)O , report its measured IC50.
1.7

----------
# assayed-target: Mitogen-activated protein kinase 14 (Mus musculus, UniProt P47811)
# assay-text: Inhibition of mouse p38alpha in anisomycin-stimulated RAW 264.7 cells by ELISA
endpoint-name: IC50 (nM)
Answers are plain numbers, in nM.

Provide the reported IC50 of each entry below, same order.
1. CC(C)Cn1c(N)nc2ccc(-c3[nH]c(-c4c(F)cccc4F)nc3-c3ccccc3)nc21
2. CC(C)Cn1c(N)nc2ccc(-c3[nH]c(-c4c(F)cccc4F)nc3-c3ccccc3)cc21
3. CC(C)(C)Cn1cnc2ccc(-c3[nH]c(C(C)(C)C)nc3-c3ccc(F)cc3F)nc21
4. CC(C)S(=O)(=O)n1c(N)nc2ccc(-c3[nH]c(-c4c(F)cccc4Cl)nc3-c3ccccc3)cc21

1: 35; 2: 78.3; 3: 20.7; 4: 74.5

----------
# assay-text: Half life in rat at 10 mg/kg, po
# Format: ADME, organism-based
# Design: dose 10 mg/kg, route oral
# experimental-setup: in vivo
endpoint-name: half-life (h)
Answers are plain numbers, in h.

Check out these entries, answers already filled in.
INSERT INTO results (input_smiles, endpoint_name, reported) VALUES
  ('CC(C)S(=O)(=O)n1c(N)nc2ccc(-c3[nH]c(C(C)(C)C)nc3-c3ccc(F)cc3F)cc21', 'half-life', 8),
  ('CC(C)S(=O)(=O)n1c(N)nc2ccc(-c3[nH]c(-c4c(F)cccc4F)nc3-c3ccccc3)cc21', 'half-life', 5);

Next, consider the following compound.
Given the entry CC(C)Cn1cnc2ccc(-c3[nH]c(-c4c(Cl)cccc4Cl)nc3-c3ccccc3)nc21.CS(=O)(=O)O , report its measured half-life.
4

----------
# assayed-target: Mitogen-activated protein kinase 14 (Homo sapiens)
# assay-text: Inhibition of human recombinant p38alpha
Threshold-based label: IC50 under 6 nM gives 1 (yes), IC50 not under 6 nM gives 0 (no).

Below 6 nM on IC50? Entry CC(C)(C)Cn1c(N)nc2ccc(-c3[nH]c(-c4c(F)cccc4F)nc3-c3ccccc3)nc21
0 (no)

Below 6 nM on IC50? Entry Nc1nc2ccc(-c3[nH]c(-c4c(F)cccc4F)nc3-c3ccccc3)cc2n1-c1ccccc1
0 (no)

Below 6 nM on IC50? Entry CC(C)Cn1cnc2ccc(-c3[nH]c(-c4c(F)cccc4F)nc3-c3ccccc3)cc21
0 (no)

----------
# assayed-target: Mitogen-activated protein kinase 14 (Homo sapiens, UniProt Q16539)
# assay-text: Inhibition of human recombinant p38alpha
endpoint-name: pIC50
One number for each entry, as −log10 of the molar value.

Check out these entries, answers already filled in.
INSERT INTO results (input_smiles, reported) VALUES
  ('CC(C)Cn1cnc2ccc(-c3[nH]c(-c4c(Cl)cccc4Cl)nc3-c3ccccc3)nc21.CS(=O)(=O)O', 8.43),
  ('CC(C)S(=O)(=O)n1c(N)nc2ccc(-c3[nH]c(-c4ccncc4)nc3-c3ccccc3)cc21', 8.21),
  ('Cc1nc(-c2ccc(F)cc2)c(-c2ccc3nc(N)n(S(=O)(=O)C(C)C)c3c2)[nH]1', 8.15),
  ('CC(C)S(=O)(=O)n1c(N(C)Cc2ccccc2)nc2ccc(-c3[nH]c(-c4c(F)cccc4F)nc3-c3ccccc3)cc21', 5.60),
  ('CCNc1nc2ccc(-c3[nH]c(-c4c(F)cccc4F)nc3-c3ccccc3)cc2n1S(=O)(=O)C(C)C', 6.81);

Provide the reported pIC50 of each entry below, same order.
1. Nc1nc2ccc(-c3[nH]c(-c4c(F)cccc4F)nc3-c3ccccc3)cc2[nH]1
2. CC(C)Cn1cnc2ccc(-c3[nH]c(-c4c(F)cccc4F)nc3-c3ccccc3)nc21
3. Cc1nc(-c2ccccc2)c(-c2ccc3nc(N)n(S(=O)(=O)C(C)C)c3c2)[nH]1
4. CC(C)(C)Cn1c(N)nc2ccc(-c3[nH]c(-c4c(F)cccc4F)nc3-c3ccccc3)cc21
5. CC(C)Cn1c(N)nc2ccc(-c3[nH]c(-c4c(F)cccc4F)nc3-c3ccccc3)nc21

6.88
8.35
7.69
8.22
8.60

Given the entry CC(C)S(=O)(=O)n1c(N)nc2ccc(-c3[nH]c(-c4ccc(Cl)cc4)nc3-c3ccccc3)cc21 , report its measured pIC50.
7.46
